Tested on: CCRF-CEM
Test: Cytotoxicity against human CCRF-CEM cells assessed as cell viability at 10 uM after 24 hrs by MTT assay
Type: functional
Conditions: read-out: Activity
parameter.measured: viability at 10 µM
Entry format: amount then unit.

The examples below pair each entry with its known result.
                          entry_smiles  value_reported
0         Brc1c(Br)c(Br)c2[nH]cnc2c1Br             92%
1  Cc1nc2c(Br)c(Br)c(Br)c(Br)c2n1CCC#N             84%

Query: Suppose we examine the compound Cc1nc2c(Br)c(Br)c(Br)c(Br)c2n1CC#N ; what viability at 10 µM value has been reported?
Result: 45%

Query: Report viability at 10 µM for Cc1nc2c(Br)c(Br)c(Br)c(Br)c2n1CCCC#N please.
Result: 68%

Query: Record request: viability at 10 µM value, item N#CCCCn1cnc2c(Br)c(Br)c(Br)c(Br)c21
Result: 85%

Query: viability at 10 µM lookup needed for N#CCCn1cnc2c(Br)c(Br)c(Br)c(Br)c21 , thanks.
Result: 80%

Query: Would you kindly share the measured viability at 10 µM for N#CCn1cnc2c(Br)c(Br)c(Br)c(Br)c21 ?
Result: 63%

Query: Form field: reported viability at 10 µM of Cc1nc2c(Br)c(Br)c(Br)c(Br)c2[nH]1
Result: 29%

Query: Report viability at 10 µM for Cc1nc2c(Br)c(Br)c(Br)c(Br)c2n1CCCCC#N please.
Result: 92%

Query: viability at 10 µM lookup needed for N#CCCCCn1cnc2c(Br)c(Br)c(Br)c(Br)c21 , thanks.
Result: 98%

###

Test system: CCRF-CEM
Assay: Cytotoxicity against human CCRF-CEM cells assessed as cell viability at 50 uM after 24 hrs by MTT assay
Assay type: functional
Settings: read-out: Activity
In plain terms, low viability at 50 µM, meaning strictly below 2%, gives true (1), and everything else gives false (0).

Query: Item Cc1nc2c(Br)c(Br)c(Br)c(Br)c2[nH]1 : viability at 50 µM beneath 2%, strictly?
Result: false (0)

###

System: CCRF-CEM
Assay: Induction of apoptosis in human CCRF-CEM cells assessed as late apoptotic cells at 10 uM after 24 hrs by annexinV and propidium iodide staining based FACS analysis (reference value: 1.9 +/- 0.5%)
Assay type: functional
parameter.measured: Activity (%)
# output: bare number, implied unit %

Query: Field: Activity (CCRF-CEM). Entry: N#CCCn1cnc2c(Br)c(Br)c(Br)c(Br)c21
Result: 3.9

Query: Value wanted: Activity (CCRF-CEM) of entry Cc1nc2c(Br)c(Br)c(Br)c(Br)c2n1CCCC#N
Result: 6.3

Query: Return Activity measured with CCRF-CEM given this compound: N#CCCCCn1cnc2c(Br)c(Br)c(Br)c(Br)c21
Result: 3.1

Query: Look up Activity with CCRF-CEM for this compound: Cc1nc2c(Br)c(Br)c(Br)c(Br)c2n1CCCCC#N
Result: 2.9

Query: Hello, I am looking for reported Activity with CCRF-CEM for Cc1nc2c(Br)c(Br)c(Br)c(Br)c2n1CC#N . Could you help?
Result: 17.8

Query: Enter reported Activity observed with CCRF-CEM for Cc1nc2c(Br)c(Br)c(Br)c(Br)c2n1CCC#N
Result: 7.1

Query: CCRF-CEM / Activity / N#CCCCn1cnc2c(Br)c(Br)c(Br)c(Br)c21 : value?
Result: 3.8

Query: What is its Activity for CCRF-CEM? Entry: Brc1c(Br)c(Br)c2[nH]cnc2c1Br
Result: 2.7

Query: Write down the reported Activity of Cc1nc2c(Br)c(Br)c(Br)c(Br)c2[nH]1 , test system: CCRF-CEM.
Result: 15.3

Query: Record lookup: for CCRF-CEM, what Activity belongs to N#CCn1cnc2c(Br)c(Br)c(Br)c(Br)c21 ?
Result: 8.8

###

System: CCRF-CEM
Assay: Cytotoxicity against human CCRF-CEM cells assessed as cell viability at 50 uM after 24 hrs by MTT assay
Assay type: functional
Conditions: read-out: Activity
parameter.measured: viability at 50 µM (%)
Report as a plain number; the unit % is understood.

                            entry_smiles  experimental_target  value_reported
0     Cc1nc2c(Br)c(Br)c(Br)c(Br)c2n1CC#N             CCRF-CEM               2
1    Cc1nc2c(Br)c(Br)c(Br)c(Br)c2n1CCC#N             CCRF-CEM               2
2   Cc1nc2c(Br)c(Br)c(Br)c(Br)c2n1CCCC#N             CCRF-CEM               1
3           Brc1c(Br)c(Br)c2[nH]cnc2c1Br             CCRF-CEM               7
4     N#CCCn1cnc2c(Br)c(Br)c(Br)c(Br)c21             CCRF-CEM               2
5    N#CCCCn1cnc2c(Br)c(Br)c(Br)c(Br)c21             CCRF-CEM               2
6      N#CCn1cnc2c(Br)c(Br)c(Br)c(Br)c21             CCRF-CEM               2
7  Cc1nc2c(Br)c(Br)c(Br)c(Br)c2n1CCCCC#N             CCRF-CEM              55

Moving on to the next compound.
Query: Record request: viability at 50 µM value, item N#CCCCCn1cnc2c(Br)c(Br)c(Br)c(Br)c21
Result: 1
